Each entry below carries its measured IC50, system: Amine oxidase [flavin-containing] B (Homo sapiens).
Sequence (P27338 whole entry): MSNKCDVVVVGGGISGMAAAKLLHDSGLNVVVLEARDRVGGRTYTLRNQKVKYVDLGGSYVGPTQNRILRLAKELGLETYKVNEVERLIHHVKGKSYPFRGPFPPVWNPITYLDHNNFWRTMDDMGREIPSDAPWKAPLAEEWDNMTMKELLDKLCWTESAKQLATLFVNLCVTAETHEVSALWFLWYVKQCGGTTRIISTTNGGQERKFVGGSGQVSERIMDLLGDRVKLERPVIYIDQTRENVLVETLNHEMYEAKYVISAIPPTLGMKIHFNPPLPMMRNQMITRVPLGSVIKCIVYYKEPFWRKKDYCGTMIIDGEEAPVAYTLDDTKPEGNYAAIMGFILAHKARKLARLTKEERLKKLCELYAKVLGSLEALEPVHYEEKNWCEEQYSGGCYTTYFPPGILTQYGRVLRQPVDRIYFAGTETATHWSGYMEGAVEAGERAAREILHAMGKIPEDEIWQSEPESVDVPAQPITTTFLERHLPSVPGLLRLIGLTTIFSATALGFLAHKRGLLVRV
test_readout: IC50 (nM)

Use these answered entries as a reference point.
Input line: Fill in reported IC50 for this entry: O=C1CSc2cc(OCc3ccc(Br)cc3)ccc2N1
Output line: 4.1

Input line: Fill in reported IC50 for this entry: COc1ccc2c(c1)SCC(=O)N2
Output line: 42600

Input line: Fill in reported IC50 for this entry: O=C1CSc2cc(OCc3ccccc3)ccc2N1
Output line: 71

Input line: Fill in reported IC50 for this entry: O=C1CSc2cc(OCCc3ccccc3)ccc2N1
Output line: 167

I. Cc1ccc(COc2ccc3c(c2)SCC(=O)N3)cc1
II. O=C1CSc2cc(OCc3ccc(Cl)cc3)ccc2N1
Input line: Parameter metric = IC50. Return the lower-valued option from I and II . Returns: label corresponding to the selected item.
Output line: II
